system: Hela (human cervical cancer cell); test: Solid tumor cell growth inhibition, MTT, 72 h (Example 7); format: cell-based; conditions: Homo sapiens; 72 h, MTT, Hela
readoutType: IC90 (µg/mL)
Return type: number; implicit unit µg/mL.

Worked cases, IC90 given:
COc1ccc2cc1Oc1ccc(cc1)C[C@H]1c3cc(c(OC)cc3CCN1C)Oc1c(OC)c(OC)c(CNCc3ccco3)c3c1[C@H](C2)N(C)CC3; 2.5
COc1ccc2cc1Oc1ccc(cc1)C[C@H]1c3cc(c(OC)cc3CCN1C)Oc1c(OC)c(OC)c(COC(=O)c3ccco3)c3c1[C@H](C2)N(C)CC3; 10.8

# get_value(readout='IC90', item= COc1ccc2cc1Oc1ccc(cc1)C[C@H]1c3cc(c(OC)cc3CCN1C)Oc1c(OC)c(OC)c(CN3CCCCC3)c3c1[C@H](C2)N(C)CC3 )
6.92

---

system: CaES-17 (esophageal cancer cell); assay: Solid tumor cell growth inhibition, MTT, 72 h (Example 7); format: cell-based, human; conditions: Homo sapiens, CaEs17; 72 h, MTT, CAES-17
readoutType: log10 IC50 (log10 of the value in mg/L)
Hey, these are logged values: log10 of IC50, mg/L being the unit before logging.

COc1ccc2cc1Oc1ccc(cc1)C[C@H]1c3cc(c(OC)cc3CCN1C)Oc1c(OC)c(OC)c(CN3CCN(C(C)C)CC3)c3c1[C@H](C2)N(C)CC3; 0.37
COc1ccc2cc1Oc1ccc(cc1)C[C@H]1c3cc(c(OC)cc3CCN1C)Oc1c(OC)c(OC)c(CNCC(C)O)c3c1[C@H](C2)N(C)CC3 (stereo partly drawn); 0.38
COc1ccc2cc1Oc1ccc(cc1)C[C@H]1c3cc(c(OC)cc3CCN1C)Oc1c(OC)c(OC)c(CN3CCN(C)CC3)c3c1[C@H](C2)N(C)CC3; 0.24
COc1ccc2cc1Oc1ccc(cc1)C[C@H]1c3cc(c(OC)cc3CCN1C)Oc1c(OC)c(OC)c(COC(=O)c3cccs3)c3c1[C@H](C2)N(C)CC3; 0.94
COc1ccc2cc1Oc1ccc(cc1)C[C@H]1c3cc(c(OC)cc3CCN1C)Oc1c(OC)c(OC)c(COCCOc3ccccc3)c3c1[C@H](C2)N(C)CC3; -0.22

So what's the measured log10 IC50 for this one? COc1ccc2cc1Oc1ccc(cc1)C[C@H]1c3cc(c(OC)cc3CCN1C)Oc1c(OC)c(OC)c(CN3CCC(O)CC3)c3c1[C@H](C2)N(C)CC3
0.54

Fill in: log10 IC50 of COCc1c2c3c(c(OC)c1OC)Oc1cc4c(cc1OC)CCN(C)[C@H]4Cc1ccc(cc1)Oc1cc(ccc1OC)C[C@@H]3N(C)CC2 is ___
0.67

What does the data say about its log10 IC50? Entry: COc1ccc2cc1Oc1ccc(cc1)C[C@H]1c3cc(c(OC)cc3CCN1C)Oc1c(OC)c(OC)c(CN(C)[C@@H](C)c3ccccc3)c3c1[C@H](C2)N(C)CC3
0.21

Query (compound): CCN1CCN(Cc2c3c4c(c(OC)c2OC)Oc2cc5c(cc2OC)CCN(C)[C@H]5Cc2ccc(cc2)Oc2cc(ccc2OC)C[C@@H]4N(C)CC3)CC1 ; field requested: log10 IC50
0.34

Fill blank: measured log10 IC50 of the compound COc1ccc2cc1Oc1ccc(cc1)C[C@H]1c3cc(c(OC)cc3CCN1C)Oc1c(OC)c(OC)c(COC(=O)c3ccc(N(C)C)cc3)c3c1[C@H](C2)N(C)CC3 is ____.
0.83

Can you look up the measured log10 IC50 of COc1ccc2cc1Oc1ccc(cc1)C[C@H]1c3cc(c(OC)cc3CCN1C)Oc1c(OC)c(OC)c(COCc3ccc(F)cc3)c3c1[C@H](C2)N(C)CC3 for me?
0.68

What does the data say about its log10 IC50? Entry: COc1ccc2cc1Oc1ccc(cc1)C[C@H]1c3cc(c(OC)cc3CCN1C)Oc1c(OC)c(OC)c(CN3CCSCC3)c3c1[C@H](C2)N(C)CC3
0.50

---

system: H9 (acute lymphoblastic leukemia, ALL); test: Leukemia cell growth inhibition, MTT, 72 h (Example 5); type: cell-based, human; conditions: Homo sapiens; 72 h, MTT
readoutType: log10(IC50) (log10 of the value in µg/mL)
Values reflect log10 of reported IC50 (µg/mL).

Would you please look over these solved cases?
COc1ccc2cc1Oc1ccc(cc1)C[C@H]1c3cc(c(OC)cc3CCN1C)Oc1c(OC)c(OC)c(CN3CCN(C)CC3)c3c1[C@H](C2)N(C)CC3; -0.66
COc1ccc2cc1Oc1ccc(cc1)C[C@H]1c3cc(c(OC)cc3CCN1C)Oc1c(OC)c(OC)c(CNCc3ccccn3)c3c1[C@H](C2)N(C)CC3; 0.12
COc1ccc2cc1Oc1ccc(cc1)C[C@H]1c3cc(c(OC)cc3CCN1C)Oc1c(OC)c(OC)c(CN3CCCC(O)C3)c3c1[C@H](C2)N(C)CC3 (some centres unmarked); -0.04
COCC(C)OCc1c2c3c(c(OC)c1OC)Oc1cc4c(cc1OC)CCN(C)[C@H]4Cc1ccc(cc1)Oc1cc(ccc1OC)C[C@@H]3N(C)CC2 (some centres unmarked); 0.14
COc1ccc2cc1Oc1ccc(cc1)C[C@H]1c3cc(c(OC)cc3CCN1C)Oc1c(OC)c(OC)c(CN3CCCC(C)C3)c3c1[C@H](C2)N(C)CC3 (some centres unmarked); 0.00
COc1ccc2cc1Oc1ccc(cc1)C[C@H]1c3cc(c(OC)cc3CCN1C)Oc1c(OC)c(OC)c(COC(=O)c3ccc(N(C)C)cc3)c3c1[C@H](C2)N(C)CC3; 0.46

I'd like to know its log10(IC50). The molecule in question is COc1ccc2cc1Oc1ccc(cc1)C[C@H]1c3cc(c(OC)cc3CCN1C)Oc1c(OC)c(OC)c(COCCn3ccnc3)c3c1[C@H](C2)N(C)CC3
0.38

Which log10(IC50) value belongs to COc1ccc2cc1Oc1ccc(cc1)C[C@H]1c3cc(c(OC)cc3CCN1C)Oc1c(OC)c(OC)c(CNCc3ccc(C)o3)c3c1[C@H](C2)N(C)CC3 ?
0.16

So what's the measured log10(IC50) for this one? COc1ccc2cc1Oc1ccc(cc1)C[C@H]1c3cc(c(OC)cc3CCN1C)Oc1c(OC)c(OC)c(COCc3cccnc3)c3c1[C@H](C2)N(C)CC3
0.09

Sample COc1ccc2cc1Oc1ccc(cc1)C[C@H]1c3cc(c(OC)cc3CCN1C)Oc1c(OC)c(OC)c(COC(=O)c3cccs3)c3c1[C@H](C2)N(C)CC3 — what was its log10(IC50)?
0.69

What value of log10(IC50) has been recorded for this entry: COc1ccc2cc1Oc1ccc(cc1)C[C@H]1c3cc(c(OC)cc3CCN1C)Oc1c(OC)c(OC)c(COC(C)=O)c3c1[C@H](C2)N(C)CC3
0.62

Which log10(IC50) value belongs to COc1ccc2cc1Oc1ccc(cc1)C[C@H]1c3cc(c(OC)cc3CCN1C)Oc1c(OC)c(OC)c(CN3CCOCC3)c3c1[C@H](C2)N(C)CC3 ?
-0.06

State the recorded log10(IC50) for this entry: COCc1c2c3c(c(OC)c1OC)Oc1cc4c(cc1OC)CCN(C)[C@H]4Cc1ccc(cc1)Oc1cc(ccc1OC)C[C@@H]3N(C)CC2
0.64

log10(IC50) lookup needed for COc1ccc2cc1Oc1ccc(cc1)C[C@H]1c3cc(c(OC)cc3CCN1C)Oc1c(OC)c(OC)c(CN3CCCCC3)c3c1[C@H](C2)N(C)CC3 , thanks.
-0.20

Requested read-out: log10(IC50). Entry: CCOCc1c2c3c(c(OC)c1OC)Oc1cc4c(cc1OC)CCN(C)[C@H]4Cc1ccc(cc1)Oc1cc(ccc1OC)C[C@@H]3N(C)CC2
0.67

GET /values?readout=log10(IC50)&item= CCN1CCN(Cc2c3c4c(c(OC)c2OC)Oc2cc5c(cc2OC)CCN(C)[C@H]5Cc2ccc(cc2)Oc2cc(ccc2OC)C[C@@H]4N(C)CC3)CC1
0.05

---

system: A549 (human lung cancer); assay: Solid tumor cell growth inhibition, MTT, 72 h (Example 7); format: cell-based; settings: Homo sapiens; 72 h, MTT, A549
Each item that follows carries a reported IC50.

CCOCc1c2c3c(c(OC)c1OC)Oc1cc4c(cc1OC)CCN(C)[C@H]4Cc1ccc(cc1)Oc1cc(ccc1OC)C[C@@H]3N(C)CC2 [BS-TE-419]; 5.61 µg/mL
COc1ccc2cc1Oc1ccc(cc1)C[C@H]1c3cc(c(OC)cc3CCN1C)Oc1c(OC)c(OC)c(CN3CCCC(CO)C3)c3c1[C@H](C2)N(C)CC3 (stereo partly drawn) [BS-TE-351]; 3.9 µg/mL
COc1ccc2cc1Oc1ccc(cc1)C[C@H]1c3cc(c(OC)cc3CCN1C)Oc1c(OC)c(OC)c(COC(=O)c3ccccc3)c3c1[C@H](C2)N(C)CC3 [BS-TE-224]; > 16 µg/mL
COc1ccc2cc1Oc1ccc(cc1)C[C@H]1c3cc(c(OC)cc3CCN1C)Oc1c(OC)c(OC)c(COCC3CCOC3)c3c1[C@H](C2)N(C)CC3 (stereo partly drawn) [BS-TE-417]; 3.88 µg/mL
COc1ccc2cc1Oc1ccc(cc1)C[C@H]1c3cc(c(OC)cc3CCN1C)Oc1c(OC)c(OC)c(COCc3ccc(F)cc3)c3c1[C@H](C2)N(C)CC3 [BS-TE-408]; 3.1 µg/mL
COc1ccc2cc1Oc1ccc(cc1)C[C@H]1c3cc(c(OC)cc3CCN1C)Oc1c(OC)c(OC)c(CN3CCCN(C)CC3)c3c1[C@H](C2)N(C)CC3 [BS-TE-356]; 3.5 µg/mL

We next turn to a different molecule, shown below.
A549 (human lung cancer) / IC50 / COc1ccc2cc1Oc1ccc(cc1)C[C@H]1c3cc(c(OC)cc3CCN1C)Oc1c(OC)c(OC)c(CNCc3ccccn3)c3c1[C@H](C2)N(C)CC3 [BS-TE-352] : value?
1.35 µg/mL
